- TARGET_OR_SYSTEM: T1, human GIP receptor (human) (UniProt P48546)
- T1 sequence (looked up): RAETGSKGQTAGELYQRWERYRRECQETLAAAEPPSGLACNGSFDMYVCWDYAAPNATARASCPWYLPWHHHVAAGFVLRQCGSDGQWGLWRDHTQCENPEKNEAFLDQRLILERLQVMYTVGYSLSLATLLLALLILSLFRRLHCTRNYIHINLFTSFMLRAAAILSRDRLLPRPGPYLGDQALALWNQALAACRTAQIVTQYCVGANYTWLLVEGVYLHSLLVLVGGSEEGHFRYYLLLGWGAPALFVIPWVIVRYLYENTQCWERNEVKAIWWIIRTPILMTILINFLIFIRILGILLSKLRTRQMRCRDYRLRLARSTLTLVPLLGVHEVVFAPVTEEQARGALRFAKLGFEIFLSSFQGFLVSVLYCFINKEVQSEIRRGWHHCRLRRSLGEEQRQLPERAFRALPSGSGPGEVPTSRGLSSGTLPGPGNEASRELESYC
- TEST_SUMMARY: cell-based or functional assay
*1 amine or outer side, *2 acyl side, *3 side chain or, on linkers, in order; H or OH if unused. Where no end group is shown, it is not given here. Side-chain parts run from the residue outwards. [ ]: non-standard residue; d: D form. The star is where a group is joined. C20 diacid = O=C(O)CCCCCCCCCCCCCCCCCCC(=O)*; C18 diacid = O=C(O)CCCCCCCCCCCCCCCCC(=O)*; γGlu = O=C(O)[C@H](CCC(=O)[*:2])N[*:1]; Nle = CCCC[C@H](N)C(=O)O; Aib = CC(C)(N)C(=O)O
Please use the following EC50 (pM), hGIP-R CRE Luc, 0.2% HSA ranges when assigning a class: small value (below 30 pM), mid value (30 pM to below 80 pM), large value (80 pM or more)

Exam item: assign Y[Aib]EGTFISDYSIA[Nle]DKIRQEDFVK([γGlu-γGlu-γGlu-C18 diacid])WLLAQKG to the correct category.
mid value

Bin? Y[Aib]EGTFISDYSIA[Nle]DKIHQQDFVK([γGlu-γGlu-γGlu-C18 diacid])WLLAQKGKENDWKHNITQ
small value

Category of Ac-[dY]AEGTFISDYSIA[Nle]DKIHQ[Aib]DFVK([γGlu-γGlu-γGlu-4‑(aminomethyl)cyclohexanecarbonyl-C20 diacid])WLLAQKG :
large value

Exam item: assign Y[Aib]EGTFISDYSIA[Nle]DKIRQ[Aib]DFVK([γGlu-γGlu-γGlu-4‑(aminomethyl)cyclohexanecarbonyl-C20 diacid])WLLAQKG to the correct category.
mid value

# bin lookup: classify Y[Aib]EGTFISDYSIA[Nle]DKIHQQDFVK([γGlu-γGlu-γGlu-C18 diacid])WLLAQKGKEDDWKHNITQ by its EC50 (pM), hGIP-R CRE Luc, 0.2% HSA
small value

Dear colleague, I would appreciate it if you could identify the bin for Ac-[dY]AEGTFISDYSIA[Nle]DKIRQQDFVK([γGlu-γGlu-γGlu-4‑(aminomethyl)cyclohexanecarbonyl-C20 diacid])WLLAQKP-NH2 and reply at your convenience.
mid value

Band assignment needed for Y[Aib]EGTFISDYSIA[Nle]DKIHQEDFVK([γGlu-γGlu-γGlu-γGlu-C18 diacid])WLLAQKG please.
large value

Which class is correct for the following binder? Ac-[dY]AEGTFISDYSIA[Nle]DKIRQQDFVK([γGlu-γGlu-γGlu-C18 diacid])WLLAQKG
mid value
